Where these numbers come from: ChEMBL document CHEMBL2321654

Biological target: Epidermal growth factor receptor (Homo sapiens)
Sequence (P00533 whole entry, the tested form may be a part): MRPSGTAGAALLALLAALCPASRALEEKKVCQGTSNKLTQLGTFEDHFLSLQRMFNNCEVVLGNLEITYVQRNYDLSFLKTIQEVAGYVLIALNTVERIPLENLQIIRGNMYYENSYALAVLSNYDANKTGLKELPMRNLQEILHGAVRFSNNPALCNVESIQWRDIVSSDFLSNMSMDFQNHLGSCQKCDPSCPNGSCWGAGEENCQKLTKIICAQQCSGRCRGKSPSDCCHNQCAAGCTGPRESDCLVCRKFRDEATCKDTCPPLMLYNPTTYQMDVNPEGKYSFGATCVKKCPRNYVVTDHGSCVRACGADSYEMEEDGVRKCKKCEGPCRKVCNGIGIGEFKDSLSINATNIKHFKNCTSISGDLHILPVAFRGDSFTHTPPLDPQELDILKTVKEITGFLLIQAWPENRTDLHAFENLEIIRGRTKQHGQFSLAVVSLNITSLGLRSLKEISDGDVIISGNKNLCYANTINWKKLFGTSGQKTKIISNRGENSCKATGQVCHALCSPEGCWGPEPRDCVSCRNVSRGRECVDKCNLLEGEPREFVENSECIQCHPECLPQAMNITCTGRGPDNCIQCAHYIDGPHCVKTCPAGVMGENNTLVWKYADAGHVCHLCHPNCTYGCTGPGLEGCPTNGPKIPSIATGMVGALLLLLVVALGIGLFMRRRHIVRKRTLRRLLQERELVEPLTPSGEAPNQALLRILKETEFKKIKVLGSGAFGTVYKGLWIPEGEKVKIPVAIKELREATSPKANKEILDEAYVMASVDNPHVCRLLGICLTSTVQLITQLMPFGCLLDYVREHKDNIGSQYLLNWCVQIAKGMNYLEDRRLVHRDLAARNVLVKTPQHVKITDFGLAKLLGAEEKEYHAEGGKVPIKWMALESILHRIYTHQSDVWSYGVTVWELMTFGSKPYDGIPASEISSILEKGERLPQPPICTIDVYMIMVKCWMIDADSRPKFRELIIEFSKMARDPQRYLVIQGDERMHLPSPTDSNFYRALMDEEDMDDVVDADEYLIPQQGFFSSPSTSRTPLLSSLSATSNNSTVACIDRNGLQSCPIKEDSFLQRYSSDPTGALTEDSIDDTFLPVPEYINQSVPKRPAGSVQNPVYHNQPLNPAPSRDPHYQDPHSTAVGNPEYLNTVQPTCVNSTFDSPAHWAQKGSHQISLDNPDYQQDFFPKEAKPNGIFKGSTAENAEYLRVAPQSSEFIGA
Experiment: Inhibition of recombinant EGFR cytoplasmic domain (645 to 1186) (unknown origin) autophosphorylation after 1 hr
Catalogue of compounds with associated IC50
Report as a plain number; the unit µM is understood.

Some compounds with recorded IC50:
NC(=S)N1N=C(c2ccc(F)cc2)CC1c1cccc2ccccc12 (stereo not drawn) :: 8.25
COc1ccc(C2=NN(C(N)=S)C(c3ccc4ccccc4c3)C2)cc1 (stereo not drawn) :: 1.04

Proceed to the following item.
Lab note: compound c1ccc(C2=NN(c3ccccc3)C(c3cccc4ccccc34)C2)cc1 (stereo not drawn) tested on Epidermal growth factor receptor (Homo sapiens); recorded IC50 was 2.52

====

Tested on: MCF7
Test: Antiproliferative activity against human MCF7 cells after 24 hrs by MTT assay
Type: functional
Details: MCF7, 24 h
ENDPOINT NAME: GI50 (nM)
Report the figure in nM without appending any unit label.

Consider the following illustrative entries.
Clc1ccc(C2=NN(c3ccccc3)C(c3cccc4ccccc34)C2)cc1Cl (stereo not given) :: 810
Cc1ccc(C2=NN(C(N)=S)C(c3ccc4ccccc4c3)C2)cc1 (stereo not given) :: 390
NC(=S)N1N=C(c2ccc(Cl)c(Cl)c2)CC1c1cccc2ccccc12 (stereo not given) :: 33100
Clc1ccc(C2=NN(c3ccccc3)C(c3ccc4ccccc4c3)C2)cc1Cl (stereo not given) :: 390
NC(=S)N1N=C(c2ccc(Cl)c(Cl)c2)CC1c1ccc(O)cc1 (stereo not given) :: 27600

Given item Fc1ccc(C2=NN(c3ccccc3)C(c3ccc4ccccc4c3)C2)cc1 (stereo not given) , the value recorded as its GI50 is 850

For this compound ( "C#Cc1cccc(Nc2ncnc3cc(OCCOC)c(OCCOC)cc23)c1" ), measured GI50 is 80

// field: GI50; key: COc1ccc(C2=NN(C(N)=S)C(c3ccc4ccccc4c3)C2)cc1 (stereo not given) ; value = 2120

Quick note, GI50 for NC(=S)N1N=C(c2ccc(Cl)c(Cl)c2)CC1c1ccc2ccccc2c1 (stereo not given) landed at 350

====

Target: Focal adhesion kinase 1 (Homo sapiens, UniProt Q05397)
Sequence (Q05397 whole entry): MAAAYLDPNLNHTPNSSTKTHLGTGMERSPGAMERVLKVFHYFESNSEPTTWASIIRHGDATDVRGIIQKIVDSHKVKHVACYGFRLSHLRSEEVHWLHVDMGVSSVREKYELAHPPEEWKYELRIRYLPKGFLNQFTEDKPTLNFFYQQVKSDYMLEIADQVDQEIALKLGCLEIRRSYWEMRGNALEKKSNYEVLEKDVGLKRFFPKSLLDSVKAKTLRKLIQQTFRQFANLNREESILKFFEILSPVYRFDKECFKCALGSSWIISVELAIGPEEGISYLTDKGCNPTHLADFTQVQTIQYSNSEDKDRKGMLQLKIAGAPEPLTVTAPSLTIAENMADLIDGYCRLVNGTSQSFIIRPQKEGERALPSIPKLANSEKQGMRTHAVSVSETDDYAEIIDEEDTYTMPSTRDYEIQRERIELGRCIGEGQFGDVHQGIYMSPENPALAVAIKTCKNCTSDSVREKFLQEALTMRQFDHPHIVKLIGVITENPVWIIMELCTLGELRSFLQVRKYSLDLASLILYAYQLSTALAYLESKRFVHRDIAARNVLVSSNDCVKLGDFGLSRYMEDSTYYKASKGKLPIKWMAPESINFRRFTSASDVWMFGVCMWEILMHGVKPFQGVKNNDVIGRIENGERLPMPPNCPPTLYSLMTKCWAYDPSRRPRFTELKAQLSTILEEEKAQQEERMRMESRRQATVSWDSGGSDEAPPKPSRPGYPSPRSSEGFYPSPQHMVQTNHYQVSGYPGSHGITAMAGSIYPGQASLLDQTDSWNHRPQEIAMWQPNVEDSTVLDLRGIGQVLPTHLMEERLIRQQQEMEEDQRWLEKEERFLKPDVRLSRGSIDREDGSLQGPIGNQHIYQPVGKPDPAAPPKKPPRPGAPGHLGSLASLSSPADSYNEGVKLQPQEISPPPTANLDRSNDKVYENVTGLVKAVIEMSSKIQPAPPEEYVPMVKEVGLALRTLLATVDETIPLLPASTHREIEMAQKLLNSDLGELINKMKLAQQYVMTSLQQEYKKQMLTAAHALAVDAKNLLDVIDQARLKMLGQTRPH
Assay: Inhibition of human-recombinant full-length FAK after 4 hrs by kinase-Glo-luminescence assay
ENDPOINT NAME: IC50 (µM)
Report the figure in µM without appending any unit label.

Cc1ccc(C2=NN(c3ccccc3)C(c3ccc4ccccc4c3)C2)cc1 (stereo unspecified) :: 11.5
Cc1ccc(C2=NN(C(N)=S)C(c3ccc4ccccc4c3)C2)cc1 (stereo unspecified) :: 28.7
Clc1ccc(C2=NN(c3ccccc3)C(c3ccc4ccccc4c3)C2)cc1Cl (stereo unspecified) :: 6.2
COc1ccc(C2=NN(C(N)=S)C(c3cccc4ccccc34)C2)cc1 (stereo unspecified) :: 13.6
COc1ccc(C2=NN(c3ccccc3)C(c3cccc4ccccc34)C2)cc1 (stereo unspecified) :: 10.3

Would you kindly look at the next entry?
Noted for NC(=S)N1N=C(c2ccc(Cl)c(Cl)c2)CC1c1ccc2ccccc2c1 (stereo unspecified) : its IC50 reads 9.9

====

Test system: MCF7
Experiment: Antiproliferative activity against human MCF7 cells after 24 hrs by MTT assay
Format: functional
Conditions: MCF7, 24 h
ENDPOINT NAME: log10(GI50) (log10 of the value in µM)
Friendly reminder: values = log10 of GI50, unit µM.

NC(=S)N1N=C(c2ccccc2)CC1c1cccc2ccccc12 (stereo unspecified) :: 1.65
NC(=S)N1N=C(c2ccc(F)cc2)CC1c1ccc2ccccc2c1 (stereo unspecified) :: -0.06
Clc1ccc(C2=NN(c3ccccc3)C(c3ccc4ccccc4c3)C2)cc1 (stereo unspecified) :: -0.28
c1ccc(C2=NN(c3ccccc3)C(c3ccc4ccccc4c3)C2)cc1 (stereo unspecified) :: -0.14
NC(=S)N1N=C(c2ccc(Cl)cc2)CC1c1ccc2ccccc2c1 (stereo unspecified) :: 0.52
Clc1ccc(C2=NN(c3ccccc3)C(c3cccc4ccccc34)C2)cc1 (stereo unspecified) :: 0.26
Brc1ccc(C2=NN(c3ccccc3)C(c3ccc4ccccc4c3)C2)cc1 (stereo unspecified) :: -0.32
COc1ccc(C2=NN(c3ccccc3)C(c3ccc4ccccc4c3)C2)cc1 (stereo unspecified) :: -0.26
Cc1ccc(C2=NN(c3ccccc3)C(c3ccc4ccccc4c3)C2)cc1 (stereo unspecified) :: -0.41

Then there is this molecule:
Please fill in: log10(GI50) reported for Brc1ccc(C2=NN(c3ccccc3)C(c3cccc4ccccc34)C2)cc1 (stereo unspecified) = 0.01

====

Measured IC50 (Vascular endothelial growth factor receptor 2 (Homo sapiens))
Answer as a quantity: numeral, then unit.

Clc1ccc(C2=NN(c3ccccc3)C(c3ccc4ccccc4c3)C2)cc1Cl (stereo not drawn) :: 1.83 µM
COc1ccc(C2=NN(c3ccccc3)C(c3cccc4ccccc34)C2)cc1 (stereo not drawn) :: 3.4 µM

Next item in the queue.
Value of IC50 reported for the compound Cc1ccc(C2=NN(c3ccccc3)C(c3ccc4ccccc4c3)C2)cc1 (stereo not drawn) is 1.56 µM

====

Molecular target: Receptor tyrosine-protein kinase erbB-2 (Homo sapiens)
Assay: Inhibition of human recombinant HER-2 cytoplasmic domain (676 to 1245) autophosphorylation after 1 hr
Some compounds, each annotated with its measured IC50.
Hi! Could you send only the number? It should be in nM, unit omitted.

Worked cases, answers included:
Cc1ccc(C2=NN(C(N)=S)C(c3ccc4ccccc4c3)C2)cc1 (configuration not stated) :: 1040
Brc1ccc(C2=NN(c3ccccc3)C(c3ccc4ccccc4c3)C2)cc1 (configuration not stated) :: 1280

// recorded IC50 for NC(=S)N1N=C(c2ccc(Cl)cc2)CC1c1cccc2ccccc12 (configuration not stated) : 5460

Entry Fc1ccc(C2=NN(c3ccccc3)C(c3cccc4ccccc34)C2)cc1 (configuration not stated) , IC50 reported as 3590

c1ccc(C2=NN(c3ccccc3)C(c3ccc4ccccc4c3)C2)cc1 (configuration not stated) yielded IC50 of 1890

====

Target: Receptor tyrosine-protein kinase erbB-2 (Homo sapiens, UniProt P04626)
Sequence (P04626 whole entry, the tested form may be a part): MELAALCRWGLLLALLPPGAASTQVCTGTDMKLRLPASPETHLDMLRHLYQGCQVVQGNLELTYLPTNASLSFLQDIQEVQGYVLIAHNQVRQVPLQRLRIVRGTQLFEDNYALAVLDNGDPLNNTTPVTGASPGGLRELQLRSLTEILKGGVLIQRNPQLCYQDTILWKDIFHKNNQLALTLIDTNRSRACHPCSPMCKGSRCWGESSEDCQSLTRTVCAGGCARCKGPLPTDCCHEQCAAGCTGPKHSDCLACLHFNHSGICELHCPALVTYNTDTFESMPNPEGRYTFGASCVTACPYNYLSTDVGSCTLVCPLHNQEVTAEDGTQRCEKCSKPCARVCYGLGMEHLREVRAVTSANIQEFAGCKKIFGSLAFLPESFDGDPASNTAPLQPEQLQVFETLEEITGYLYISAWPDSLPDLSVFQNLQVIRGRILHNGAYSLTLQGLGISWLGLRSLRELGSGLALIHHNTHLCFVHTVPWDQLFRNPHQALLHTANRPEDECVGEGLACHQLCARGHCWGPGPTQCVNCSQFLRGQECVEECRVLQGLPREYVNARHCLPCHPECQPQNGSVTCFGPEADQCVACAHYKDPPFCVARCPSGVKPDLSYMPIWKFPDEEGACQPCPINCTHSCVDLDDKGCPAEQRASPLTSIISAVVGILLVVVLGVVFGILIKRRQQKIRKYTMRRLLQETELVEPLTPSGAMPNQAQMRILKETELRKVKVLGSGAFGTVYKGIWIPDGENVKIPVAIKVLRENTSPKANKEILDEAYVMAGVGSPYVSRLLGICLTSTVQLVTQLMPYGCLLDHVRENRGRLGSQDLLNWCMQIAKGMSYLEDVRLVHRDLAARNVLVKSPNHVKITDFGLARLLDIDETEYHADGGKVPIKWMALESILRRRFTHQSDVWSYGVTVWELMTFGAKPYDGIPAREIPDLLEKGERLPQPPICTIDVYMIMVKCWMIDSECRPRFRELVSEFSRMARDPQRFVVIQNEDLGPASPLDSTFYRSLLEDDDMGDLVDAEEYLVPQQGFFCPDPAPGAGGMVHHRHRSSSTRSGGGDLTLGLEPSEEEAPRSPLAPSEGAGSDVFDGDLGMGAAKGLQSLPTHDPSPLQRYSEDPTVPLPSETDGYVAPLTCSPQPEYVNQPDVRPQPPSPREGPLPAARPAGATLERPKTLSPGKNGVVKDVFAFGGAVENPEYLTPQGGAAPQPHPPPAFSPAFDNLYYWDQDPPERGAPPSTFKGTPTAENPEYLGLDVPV
Experiment: Inhibition of human recombinant HER-2 cytoplasmic domain (676 to 1245) autophosphorylation after 1 hr
Mark each entry Criterion met if its IC50 sits below 3 µM, and Criterion not met for all others.

Clc1ccc(C2=NN(c3ccccc3)C(c3cccc4ccccc34)C2)cc1Cl (configuration not stated) :: Criterion met
NC(=S)N1N=C(c2ccc(Br)cc2)CC1c1cccc2ccccc12 (configuration not stated) :: Criterion not met

# check: IC50 < 3 µM for NC(=S)N1N=C(c2ccc(Cl)c(Cl)c2)CC1c1cccc2ccccc12 (configuration not stated)
Criterion not met

For this compound, is IC50 lower than 3 µM? Clc1ccc(C2=NN(c3ccccc3)C(c3ccc4ccccc4c3)C2)cc1 (configuration not stated)
Criterion met

Bench note: check whether NC(=S)N1N=C(c2ccc(Cl)c(Cl)c2)CC1c1ccc2ccccc2c1 (configuration not stated) shows IC50 below 3 µM
Criterion met

====

Biological target: Receptor tyrosine-protein kinase erbB-2 (Homo sapiens, UniProt P04626)
Assay: Inhibition of human recombinant HER-2 cytoplasmic domain (676 to 1245) autophosphorylation after 1 hr
ENDPOINT NAME: pIC50
On this scale, pIC50 is minus log10 of a concentration expressed in M (mol/L).

Cc1ccc(C2=NN(C(N)=S)C(c3cccc4ccccc34)C2)cc1 (configuration not stated) :: 5.18
Cc1ccc(C2=NN(c3ccccc3)C(c3cccc4ccccc34)C2)cc1 (configuration not stated) :: 5.72
Brc1ccc(C2=NN(c3ccccc3)C(c3cccc4ccccc34)C2)cc1 (configuration not stated) :: 5.63
COc1ccc(C2CC(c3ccc(C)c(C)c3)=NN2C(N)=S)cc1 (configuration not stated) :: 5.56
NC(=S)N1N=C(c2ccc(Br)cc2)CC1c1ccc2ccccc2c1 (configuration not stated) :: 5.92
NC(=S)N1N=C(c2ccc(Cl)cc2)CC1c1ccc2ccccc2c1 (configuration not stated) :: 5.41

The value of pIC50 recorded for NC(=S)N1N=C(c2ccc(F)cc2)CC1c1cccc2ccccc12 (configuration not stated) when tested on Receptor tyrosine-protein kinase erbB-2 (Homo sapiens, UniProt P04626) reads 4.97

Observed pIC50 on Receptor tyrosine-protein kinase erbB-2 (Homo sapiens, UniProt P04626), entry Clc1ccc(C2=NN(c3ccccc3)C(c3cccc4ccccc34)C2)cc1 (configuration not stated) , equals 5.51

I looked up COc1ccc(C2=NN(C(N)=S)C(c3ccc4ccccc4c3)C2)cc1 (configuration not stated) and its pIC50 for Receptor tyrosine-protein kinase erbB-2 (Homo sapiens, UniProt P04626) was 5.48

pIC50 of NC(=S)N1N=C(c2ccccc2)CC1c1ccc2ccccc2c1 (configuration not stated) , assay on Receptor tyrosine-protein kinase erbB-2 (Homo sapiens, UniProt P04626), is 5.24

# lookup: Cc1ccc(C2=NN(c3ccccc3)C(c3ccc4ccccc4c3)C2)cc1 (configuration not stated) on Receptor tyrosine-protein kinase erbB-2 (Homo sapiens, UniProt P04626), pIC50 = 5.95

Item COc1ccc(C2=NN(C(N)=S)C(c3cccc4ccccc34)C2)cc1 (configuration not stated) was tested on Receptor tyrosine-protein kinase erbB-2 (Homo sapiens, UniProt P04626); the reported pIC50 is 5.38
